# protocol-notes: Pharmacokinetic test in mice
# Type: in vivo
# assay-setup: male, ICR, 25 mg/kg; mouse, po 25 mpk, plasma
property: Cmax (ng/mL)

a = [2H]C([2H])([2H])NC(=O)c1ccc(NCC#Cc2nc3c(NC4CCC(N5CCOCC5)CC4F)cccn3c2CC(F)(F)F)c(OC([2H])([2H])[2H])c1 (single isomer, unassigned) [Compound 70d]
b = [2H]C([2H])([2H])NC(=O)c1ccc(NCC#Cc2cc3c(NC4CCC(N5CC6(COC6)C5)CC4F)cccn3c2CC(F)(F)F)c(OC([2H])([2H])[2H])c1 (single isomer, unassigned) [Compound 74d]
c = CNC(=O)c1ccc(NCC#Cc2nc3c(NC4CCC(N5CC6(COC6)C5)CC4F)cccn3c2CC(F)(F)F)c(OC)c1 (single isomer, unassigned)
d = CNC(=O)c1ccc(NCC#Cc2nc3c(N[C@@H]4CCN(C)C[C@@H]4F)cccn3c2CC(F)(F)F)c(OC)c1
Ask: Put the items in sequence by Cmax, from largest down. Rank the items, then write their labels in that order.
Result: a, c, b, d
(a: 13100 ng/mL, c: 6860 ng/mL, b: 4160 ng/mL, d: 1140 ng/mL)

* * *

# protocol-notes: Caco-2 cell permeability test
# Format: in vitro ADME
# assay-setup: human, pH 7.4, Caco-2, 10 μM, B to A
property: Papp B→A at 120 min, 10 μM (×10⁻⁶ cm/s)

I = CNC(=O)c1ccc(NCC#Cc2nc3c(NC4CCC(N5CC6(COC6)C5)CC4F)cccn3c2CC(F)(F)F)c(OC)c1 (single isomer, unassigned)
II = CNC(=O)c1ccc(NCC#Cc2nc3c(NC4CC[C@@H](N5CC6(COC6)C5)C[C@@H]4F)cccn3c2CC(F)(F)F)c(OCF)c1 (stereo partly drawn)
III = CNC(=O)c1ccc(NCC#Cc2nc3c(NC4CC[C@@H](N5CC6(CCC6)C5)C[C@@H]4F)cccn3c2CC(F)(F)F)c(OC)c1 (stereo partly drawn)
Ask: Put the items in sequence by Papp B→A at 120 min, 10 μM, from largest down. Rank the items, then write their labels in that order.
Result: I, II, III
(I: 11.4 ×10⁻⁶ cm/s, II: 7.46 ×10⁻⁶ cm/s, III: 3.72 ×10⁻⁶ cm/s)

* * *

# protocol-notes: Liver microsome stability test, mouse (MLM)
# Format: in vitro ADME
# assay-setup: mouse liver microsomes, NADPH; read-out: T1/2 (min) Mouse
property: half-life (min)

>>> reading("COc1cc(C(=O)NC2CC2)ccc1NCC#Cc1nc2c(NC3CC[C@@H](N4CC5(COC5)C4)C[C@@H]3F)cccn2c1CC(F)(F)F (stereo partly shown)")
78.4
>>> reading("CNC(=O)c1ccc(NCC#Cc2cc3c(NC4CCC(N5CC6(COC6)C5)CC4F)cccn3c2CC(F)(F)F)c(OC)c1 (single isomer, unassigned) [Compound 65d]")
16.9
>>> reading("CNC(=O)c1ccc(NCC#Cc2cc3c(N[C@@H]4CCN(C)C[C@@H]4F)cccc3n2CC(F)(F)F)c(OC)c1 [Reference compound, reference compound]")
17.1
>>> reading("CNC(=O)c1ccc(NCC#Cc2nc3c(NC4CCC(N5CC6(COC6)C5)CC4F)cccn3c2CC(F)(F)F)c(OC)c1 (single isomer, unassigned)")
19.2

A = CNC(=O)c1ccc(NCC#Cc2nc3c(NC4CC[C@@H](N5CC6(COC6)C5)C[C@@H]4F)cccn3c2CC(F)(F)F)c(OCF)c1 (stereo partly shown)
B = [2H]C([2H])([2H])NC(=O)c1ccc(NCC#Cc2cc3c(NC4CCC(N5CC6(COC6)C5)CC4F)cccn3c2CC(F)(F)F)c(OC([2H])([2H])[2H])c1 (single isomer, unassigned) [Compound 74d]
C = [2H]C([2H])([2H])NC(=O)c1ccc(NCC#Cc2nc3c(NC4CC[C@@H](N5CC6(COC6)C5)C[C@@H]4F)cccn3c2CC(F)(F)F)c(OC([2H])([2H])[2H])c1 (stereo partly shown)
Ask: # sort list by recorded half-life, greatest to least Rank the items, then write their labels in that order.
Result: C, A, B
(C: 55 min, A: 33 min, B: 22 min)
